System: P. aeruginosa 6065Y
Assay: In vitro antibacterial activity test (broth microdilution)
Assay type: cell-based
Settings: Pseudomonas aeruginosa, 6065Y
Please go through the items and note down their MIC90.
Your answer should be a plain number; it is taken to be in mg/L.

The molecule identified as CC(C)(O/N=C(\C(=O)N[C@@H]1C(=O)N2C(C(=O)[O-])=C(C[n+]3cnc(NCCN)c(NCCNC(=O)c4cc(=O)c(O)cn4O)c3)CSC12)c1csc(N)n1)C(=O)O (stereo partly drawn) registered its MIC90 at 4

Entry under test: CC(C)(O/N=C(\C(=O)N[C@@H]1C(=O)N2C(C(=O)[O-])=C(/C=C/C[n+]3cnc(N)c(NC(=O)CCCN)c3)CSC12)c1csc(N)n1)C(=O)O (stereo partly drawn) . Its MIC90 was 16

Consider CC(C)(O/N=C(\C(=O)N[C@@H]1C(=O)N2C(C(=O)[O-])=C(/C=C/C[n+]3cnc(N)c(NC(=O)CCN)c3)CSC12)c1nc(N)sc1Cl)C(=O)O (stereo partly drawn) . Its measured MIC90 is 16

---

Tested on: K. pneumoniae (38 clinical isolates)
Experiment: Antibacterial activity on representative drug-resistance bacteria: number of clinical isolates per MIC value
Assay type: cell-based
Details: MIC 16 ug/mL; K. pneumomiae (N = 38)
Please provide measured number of clinical isolates that showed the respective MIC value for the entries that follow.
Provide a numeric answer; units are not to be included.

# number of clinical isolates that showed the respective MIC value (compound: CC(C)(O/N=C(\C(=O)N[C@@H]1C(=O)N2C(C(=O)[O-])=C(C[n+]3ccccc3)CS[C@H]12)c1csc(N)n1)C(=O)O [Ceftazidime, reference compound] ) is 3

// number of clinical isolates that showed the respective MIC value lookup, compound = C[C@@H](O)[C@H]1C(=O)N2C(C(=O)O)=C(S[C@@H]3CN[C@H](CNS(N)(=O)=O)C3)[C@H](C)[C@H]12 [Doripenem, reference compound] , result: 2

Documented number of clinical isolates that showed the respective MIC value of CC(C)(O/N=C(\C(=O)N[C@@H]1C(=O)N2C(C(=O)[O-])=C(/C=C/C[n+]3cnc(N)c(NCCNC(=O)c4cc(=O)c(O)cn4O)c3)CSC12)c1nc(N)sc1Cl)C(=O)O (some centres unmarked) : 4

Just so you know, measured number of clinical isolates that showed the respective MIC value for Cn1c(N)c(NC(=O)NCCN)c[n+]1CC1=C(C(=O)O)N2C(=O)[C@@H](NC(=O)/C(=N\OC(C)(C)C(=O)[O-])c3nsc(N)n3)[C@H]2SC1 [CXA-101, reference compound] came out at 1

response.value for C[C@H](O/N=C(\C(=O)N[C@@H]1C(=O)N2C(C(=O)[O-])=C(C[n+]3cnc(N)c(NCCNC(=O)c4cc(=O)c(O)cn4O)c3)CSC12)c1nc(N)sc1Cl)C(=O)O (some centres unmarked) (field: number of clinical isolates that showed the respective MIC value) = 2

---

System: E. cloacae β19
Assay: In vitro antibacterial activity test (broth microdilution)
Format: cell-based
Details: Enterobacter cloacae, read-out: MIC90
EXPERIMENTAL_ENDPOINT: MIC90 (mg/L)
// units = mg/L; emit number, no label

E. cloacae β19 MIC90 of CC(C)(O/N=C(\C(=O)N[C@@H]1C(=O)N2C(C(=O)[O-])=C(C[n+]3cnc(N)c(NC(=O)CCNC(=O)c4ccc(O)c(O)c4)c3)CSC12)c1csc(N)n1)C(=O)O (stereo partly drawn) [Compound 28] is 128

Test item CC(C)(O/N=C(\C(=O)N[C@@H]1C(=O)N2C(C(=O)[O-])=C(C[n+]3ccccc3)CS[C@H]12)c1csc(N)n1)C(=O)O [Ceftazidime, reference compound] ; E. cloacae β19; reported MIC90 was 32

Record C[C@H](O/N=C(\C(=O)N[C@@H]1C(=O)N2C(C(=O)[O-])=C(/C=C/C[n+]3cnc(N)c(NCCNC(=O)c4cc(=O)c(O)cn4O)c3)CSC12)c1nc(N)sc1Cl)C(=O)O (stereo partly drawn) [Compound 24] ; system E. cloacae β19; MIC90 = 0.5
